System: Klebsiella aerogenes DSM 30053
MEASUREMENT NOTES: growth (OD595) fold change vs plate DMSO controls (fold change (ratio)); higher = more growth
PROTOCOL CONDITIONS: 20 µM; incubation time: 27 h, anaerobic, 37 °C
Here, each record is paired with measured growth data.

Check out these entries, answers already filled in.
COMPOUND | REPORTED RESULT
C=CCC1(CC(C)C)C(=O)NC(=O)NC1=O | 0.966
NCC1(CC(=O)O)CCCCC1 | 1.03
Nc1c([N+](=O)[O-])ccc(Oc2ccccc2)c1Cl | 0.998
CCC(=O)O[C@H]1CC[C@H]2[C@@H]3CCC4=CC(=O)CC[C@]4(C)[C@H]3CC[C@]12C [Testosterone propionate] | 1.03

Next, consider the following compound.
Challenge: Assign growth to the following record: CCNC(=O)NC(=O)/C(C#N)=N/OC
Response given: 1

====

System: Ruminococcus gnavus DSM 108212
MEASUREMENT NOTES: fold change of Tryptamine concentration vs plate DMSO controls (fold change (ratio)); higher = more amine produced, active = hit call of the paper (significant change in both replicates, either direction)
PROTOCOL CONDITIONS: 20 µM; incubation time: 27 h, anaerobic, 37 °C
Mark NOT MET for fold change of Tryptamine concentration values under 1, and MET for everything at or above.

Challenge: State whether the measured fold change of Tryptamine concentration reaches 1, counting equality as reaching it, for C[C@]12CCC(=O)C=C1CC[C@@H]1[C@@H]2C(=O)C[C@]2(C)C(=O)CC[C@@H]12
Response given: MET

Challenge: State whether the measured fold change of Tryptamine concentration reaches 1, counting equality as reaching it, for CN1[C@@H]2CC[C@H]1C[C@@H](OC(=O)[C@H](CO)c1ccccc1)C2
Response given: MET

Challenge: State whether the measured fold change of Tryptamine concentration reaches 1, counting equality as reaching it, for CC1(C(=O)Nc2ccc(O)c(Cl)c2Cl)CCCCC1
Response given: NOT MET

====

System: Escherichia coli IAI1
MEASUREMENT NOTES: fold change of Putrescine concentration vs plate DMSO controls (fold change (ratio)); higher = more amine produced, active = hit call of the paper (significant change in both replicates, either direction)
PROTOCOL CONDITIONS: 20 µM; incubation time: 27 h, anaerobic, 37 °C
Mark F for fold change of Putrescine concentration values under 1, and T for everything at or above.

Challenge: State whether the measured fold change of Putrescine concentration reaches 1, counting equality as reaching it, for Nc1ccncc1
Response given: F

Challenge: State whether the measured fold change of Putrescine concentration reaches 1, counting equality as reaching it, for CC(C)[N+](C)(CCC(C(N)=O)(c1ccccc1)c1ccccc1)C(C)C [Isopropamide iodide]
Response given: T

Challenge: State whether the measured fold change of Putrescine concentration reaches 1, counting equality as reaching it, for Clc1ccc(C(c2ccc(Cl)cc2)C(Cl)(Cl)Cl)cc1
Response given: T

====

Tested on: Ruminococcus gnavus DSM 108212
MEASUREMENT NOTES: fold change of Tryptamine concentration vs plate DMSO controls (fold change (ratio)); higher = more amine produced, active = hit call of the paper (significant change in both replicates, either direction)
PROTOCOL CONDITIONS: 20 µM; incubation time: 27 h, anaerobic, 37 °C
Counter-ions that a name gives are not always drawn.
READOUT TYPE: fold change of Tryptamine concentration
Answer using only a numeral; do not append any unit.

Check out these entries, answers already filled in.
MOLECULE | REPORTED RESULT
CC(Cc1ccc(O)cc1)NCC(O)c1cc(O)cc(O)c1 (centres undefined) [Fenoterol hydrobromide] | 1.04
CC1C=CC=CCCC=CC=CC=CC=CC(OC2OC(C)C(O)C(N)C2O)CC2OC(O)(CC(O)C(O)CCC(O)CC(O)CC(O)CC(=O)OC(C)C(C)C1O)CC(O)C2C(=O)O (centres undefined) [Nystatine] | 1.01
COC(=O)N(C(=O)N1CO[C@@]2(C(=O)OC)Cc3cc(Cl)ccc3C2=N1)c1ccc(OC(F)(F)F)cc1 | 1.03
COc1cccc(C(=O)NN(C(=O)c2cc(C)cc(C)c2)C(C)(C)C)c1C | 0.932

Next, consider the following molecule.
Challenge: Assign fold change of Tryptamine concentration to the following record: CC(C)CC(N(C)C)C1(c2ccc(Cl)cc2)CCC1 (centres undefined) [Sibutramine hydrochloride]
Response given: 0.985

FYI, the data here is from the supplement of paper PMC12494721.
